Molecular target: HSP90α (Homo sapiens)
pIC50: −log10 of the molar value.
readout: pIC50

• COc1cccc(-c2cc(C(=O)Nc3ccc(-c4ccc(OC5CCN(C)CC5)cc4OCCN(C)CC[C@@H]4N=C(c5ccc(Cl)cc5)c5c(sc(C)c5C)-n5c(C)nnc54)cc3)ccc2OC)c1 = < 6.00

Please report pIC50 for every entry that follows.
1. Cc1sc2c(c1C)C(c1ccc(Cl)cc1)=N[C@@H](CC(=O)NCCc1ccc(CN3CCC(Cc4ccc(-n5c(O)nnc5-c5cc(C(C)C)c(O)cc5O)cc4)CC3)cc1)c1nnc(C)n1-2
2. CCc1cc(-c2nnc(O)n2-c2ccc(CN3CCC(C(=O)N4CCC(CNCC[C@@H]5N=C(c6ccc(Cl)cc6)c6c(sc(C)c6C)-n6c(C)nnc65)CC4)CC3)cc2)c(O)cc1O
3. Cc1sc2c(c1C)C(c1ccc(Cl)cc1)=N[C@@H](CC(=O)NCCOCCN1CCN(Cc3ccc(-n4c(O)nnc4-c4cc(C(C)C)c(O)cc4O)cc3)CC1)c1nnc(C)n1-2

[reply]
["6.00 to 7.00", "6.00 to 7.00", "> 7.00"]

Given item Cc1sc2c(c1C)C(c1ccc(Cl)cc1)=N[C@@H](CCNCCOCCOc1ccc(-n3c(O)nnc3-c3cc(C(C)C)c(O)cc3O)cc1)c1nnc(C)n1-2 , the value recorded as its pIC50 is 6.00 to 7.00

All figures here come from patent US20220168427A1.
